# assayTarget: Tyrosyl-DNA phosphodiesterase 2 (Homo sapiens, UniProt O95551)
# Sequence (O95551 whole entry): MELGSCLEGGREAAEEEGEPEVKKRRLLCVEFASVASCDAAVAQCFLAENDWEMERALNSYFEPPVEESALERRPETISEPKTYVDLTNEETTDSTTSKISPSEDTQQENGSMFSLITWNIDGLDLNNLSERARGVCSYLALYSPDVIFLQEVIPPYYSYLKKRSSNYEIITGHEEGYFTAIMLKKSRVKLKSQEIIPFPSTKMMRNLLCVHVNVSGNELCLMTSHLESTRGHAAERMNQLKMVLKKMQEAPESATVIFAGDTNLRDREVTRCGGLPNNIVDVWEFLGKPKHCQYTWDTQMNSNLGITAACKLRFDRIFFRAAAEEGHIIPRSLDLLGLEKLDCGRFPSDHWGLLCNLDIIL
# testDetails: Inhibition of N-terminal His-tagged human TDP2 expressed in Escherichia coli BL21 using 4-nitrophenyl phenylphosphonate as substrate incubated for 60 mins by EDTA based chromogenic assay
Listed compounds paired with reported IC50
Respond numerically; units are µM and should not be typed.

# input Please provide the recorded IC50 for COc1ccc(COc2cc3c(c4c2[C@H](C(C)C)C2=C(O4)C(C)(C)C(=O)C(C)(C)C2=O)[C@@H](C(C)C)C2=C(O3)C(C)(C)C(=O)C(C)(C)C2=O)cc1 , tested on Tyrosyl-DNA phosphodiesterase 2 (Homo sapiens, UniProt O95551).
# output 56

# input Form entry - test system: Tyrosyl-DNA phosphodiesterase 2 (Homo sapiens, UniProt O95551); read-out: IC50; compound: CC(C)[C@@H]1C2=C(Oc3c1c(OCCN(C)C)cc1c3[C@@H](C(C)C)C3=C(O1)C(C)(C)C(=O)C(C)(C)C3=O)C(C)(C)C(=O)C(C)(C)C2=O
# output 11

# input Param readout = IC50; param system = Tyrosyl-DNA phosphodiesterase 2 (Homo sapiens, UniProt O95551); param query = CCN(CC)CCOc1cc2c(c3c1[C@H](C(C)C)C1=C(O3)C(C)(C)C(=O)C(C)(C)C1=O)[C@@H](C(C)C)C1=C(O2)C(C)(C)C(=O)C(C)(C)C1=O ; response: value
# output 53

# input Kindly state the measured IC50 obtained for CC(C)[C@@H]1C2=C(Oc3c1c(OCCCN1CCN(C)CC1)cc1c3[C@@H](C(C)C)C3=C(O1)C(C)(C)C(=O)C(C)(C)C3=O)C(C)(C)C(=O)C(C)(C)C2=O with Tyrosyl-DNA phosphodiesterase 2 (Homo sapiens, UniProt O95551).
# output 20

# input What reported IC50 corresponds to Cc1ccc(COc2cc3c(c4c2[C@H](C(C)C)C2=C(O4)C(C)(C)C(=O)C(C)(C)C2=O)[C@@H](C(C)C)C2=C(O3)C(C)(C)C(=O)C(C)(C)C2=O)cc1 on Tyrosyl-DNA phosphodiesterase 2 (Homo sapiens, UniProt O95551)?
# output 31

# input Value wanted: IC50 (Tyrosyl-DNA phosphodiesterase 2 (Homo sapiens, UniProt O95551)) of entry CC(C)CCOc1cc2c(c3c1[C@H](C(C)C)C1=C(O3)C(C)(C)C(=O)C(C)(C)C1=O)[C@@H](C(C)C)C1=C(O2)C(C)(C)C(=O)C(C)(C)C1=O
# output 26

====

# Tested on: A549
# testDetails: Cytotoxicity against human A549 cells assessed as cell growth inhibition for 72 hrs by MTT assay
# Format: functional
# testSettings: Homo sapiens, A549, 72 h
measure: GI50 (µM)
Write the number in µM without appending the unit.

molecule: COc1c(C(=O)C(C)C)c2c(c3c1[C@@H](C(C)C)C1=C(O3)C(C)(C)C(=O)C(C)(C)C1=O)[C@H](C(C)C)C1=C(O2)C(C)(C)C(=O)C(C)(C)C1=O (racemic)
assayTarget: A549
GI50, µM: 31
--
molecule: CC(C)[C@H]1C2=C(Oc3c1c(O)cc1c3[C@@H](C(C)C)C3=C(O1)C(C)(C)C(=O)C(C)(C)C3=O)C(C)(C)C(=O)C(C)(C)C2=O
assayTarget: A549
GI50, µM: 38

Switching to the query record.
# input Data request, read-out GI50, for CC(C)[C@@H]1C2=C(Oc3cc(O)c4c(c31)OC1=C(C(=O)C(C)(C)C(=O)C1(C)C)[C@@H]4C(C)C)C(C)(C)C(=O)C(C)(C)C2=O
# output 32
